property name: melting point

                                   molecule      obs_value
0           COC(=O)c1cocc1-n1c(OC)nn(C)c1=O  131 to 133 °C
1  COC(=O)c1ccc2cc(CCCCc3cc4ccc(C(=O)OC)cc4o3)oc2c1  130 to 131 °C
2  COc1ccc(S(=O)(=O)N2c3cc(F)ccc3-c3ccccc3C2C)cc1 (stereo not drawn)  138 to 139 °C

---

Listed molecules paired with reported melting point
property name: melting point

>>> df
                                    molecule      obs_value
 0  C=C1CCC2C3CCC4=C(CC=C(OC)C4)C3CCC12C (stereo unspecified)    77 to 78 °C
 1                Cc1c(C(=O)O)sc2ccc(CO)cc12  260 to 262 °C
 2  Cc1cc2c(-c3ccccc3)c(CC(=O)NCc3ccccc3)n(C)c(=O)c2cc1C         222 °C
 3  Cc1cc2c(cc1C)CC(C)NC(=O)C2 (stereo unspecified)  226 to 227 °C
 4  CCCCCN(CCCCC)C(=O)C(CCC(=O)O)CS(=O)(=O)c1ccc(Cl)c(Cl)c1 (stereo unspecified)    76 to 79 °C
 5      Cc1ccc([N+](=O)[O-])cc1Nc1cc(Cl)ccn1  130 to 133 °C
 6      Cc1cccc(Sc2c(O)cc(-c3ccccc3)oc2=O)c1  197 to 198 °C
 7  CCCCCN1C(=O)C(c2ccc3c(c2)OCO3)(c2cc3c(cc2O)OCO3)c2ccccc21 (stereo unspecified)    75 to 76 °C
 8                        Cc1cc(Cl)nc(C#N)c1         133 °C
 9  BrCCCCCCC1(CCCCCCBr)c2cc(Br)ccc2-c2ccc(Br)cc21          68 °C
10  Cc1cc(Cl)cc2c1OC(C(F)(F)F)C(C(=O)O)=C2 (stereo unspecified)  232 to 233 °C
